# Protocol Details: In vivo pharmacokinetic evaluation in mice
# Set-up: species or system ICR mice
# Conditions: ICR, mouse, in vivo, IV (6 mg/kg), plasma, read-out: Vss
Experimental Readout: Vd (L/kg)
Dear colleague, please return just the value in L/kg, with no unit written.

INSERT INTO measurements (compound, reported_result) VALUES
  ('Cc1cc(C2=NO[C@@](c3cc(Cl)cc(C(F)(F)F)c3)(C(F)(F)F)C2)ccc1C(=O)NCC(=O)NC1(C(F)(F)F)CC1', 1.93),
  ('Cc1cc(C2=NOC(c3cc(Cl)cc(Cl)c3)(C(F)(F)F)C2)ccc1C(=O)NCC(=O)NC1CC1 (stereo not drawn) [Example 39 (Comparative Example 1), reference compound]', 1.97);

Now let's try a different one.
Enquiry: // Vd lookup, key: `Cc1cc(C2=NO[C@@](c3cc(Cl)cc(Cl)c3)(C(F)(F)F)C2)ccc1C(=O)NCC(=O)NC1(C(F)(F)F)CC1`
Return: 1.96

* * *

# Tested on: Borer
# Protocol Details: Killing efficacy test against agricultural pests: borer test (leaf dip)
# Assay type: in vivo
# Conditions: 0.5 mg/L, after 72 h
Experimental Readout: Corrected Mortality Rate (%)
Dear colleague, please return just the value in %, with no unit written.

Some compounds with known Corrected Mortality Rate (%) results, for comparison:
INSERT INTO measurements (compound, reported_result) VALUES
  ('Cc1cc(C2=NOC(c3cc(C(F)(F)F)cc(C(F)(F)F)c3)(C(F)(F)F)C2)ccc1C(=O)NCC(=O)NC1(C(F)(F)F)CC1 (stereo not shown)', 100),
  ('Cc1cc(C2=NOC(c3cc(Cl)c(Cl)c(C(F)(F)F)c3)(C(F)(F)F)C2)ccc1C(=O)NCC(=O)NC1(C(F)(F)F)CC1 (stereo not shown)', 50),
  ('Cc1cc(C2=NO[C@@](c3cc(Cl)cc(Cl)c3)(C(F)(F)F)C2)ccc1C(=O)NCC(=O)NC1(C(F)(F)F)CC1', 93);

Now let's try a different one.
Enquiry: Reported Corrected Mortality Rate (%) for Borer, given `Cc1cc(C2=NO[C@@](c3cc(Cl)cc(C(F)(F)F)c3)(C(F)(F)F)C2)ccc1C(=O)NCC(=O)NC1(C(F)(F)F)CC1` ?
Return: 82

* * *

Measured Corrected Mortality Rate (%) values are reported for all entries that follow.
# Tested on: Aphid
# Protocol Details: Killing efficacy test against agricultural pests: aphid test (leaf dip)
# Assay type: in vivo, aphids
# Conditions: 2 mg/L, after 72 h
Dear colleague, please return just the value in %, with no unit written.

Some molecules with known Corrected Mortality Rate (%) results, for comparison:
INSERT INTO measurements (molecule, reported_result) VALUES
  ('Cc1cc(C2=NOC(c3cc(C(F)(F)F)cc(C(F)(F)F)c3)(C(F)(F)F)C2)ccc1C(=O)NCC(=O)NC1(C(F)(F)F)CC1 (stereo not shown) [Example 030]', 22),
  ('Cc1cc(C2=NO[C@@](c3cc(Cl)cc(C(F)(F)F)c3)(C(F)(F)F)C2)ccc1C(=O)NCC(=O)NC1(C(F)(F)F)CC1 [Example 008]', 86),
  ('Cc1cc(C2=NO[C@@](c3cc(Cl)cc(Cl)c3)(C(F)(F)F)C2)ccc1C(=O)NCC(=O)NC1(C(F)(F)F)CC1 [Example 011]', 60);

Now let's try a different one.
Enquiry: Reported Corrected Mortality Rate (%) for Aphid, given Cc1cc(C2=NOC(c3cc(Cl)c(Cl)c(C(F)(F)F)c3)(C(F)(F)F)C2)ccc1C(=O)NCC(=O)NC1(C(F)(F)F)CC1 (stereo not shown) [Example 029] ?
Return: 5

The origin of these recorded values is patent EP4741380A1.
